Hey, just so you know, these numbers are from PubChem BioAssay (NCATS).

# test_method_notes: Drug repurposing screens with cells derived from glioblastoma tumor samples (AID 1345199); also: % is scaled to controls: 0 for no effect and ±100 for the full control effect
# cond: GBM patient neurospheres viability, ATP luminescence, 48 h; at 21.2 µM (top of the series); tumour line D
Inconclusive results are not listed.
quantity_name: activity, negative = cell killing (%)
# number only, unit % dropped from output

| compound | unit_of_measurement | activity, negative = cell killing |
| --- | --- | --- |
| C[n+]1ccccc1/C=N/O | % | -26.7 |
| CCc1cccc(CC)c1NC(=O)CN(CC(=O)O)CC(=O)O | % | -7.08 |
| NC(N)=NS(=O)(=O)c1ccc(N)cc1 | % | 9.81 |

Requested read-out: activity, negative = cell killing. Entry: Cc1ccsc1/C=C/C1=NCCCN1C
-7.19

Requested read-out: activity, negative = cell killing. Entry: O=C(NCC(O)CO)c1c(I)c(C(=O)NCC(O)CO)c(I)c(N(CCO)C(=O)CO)c1I (centres undefined)
1

Requested read-out: activity, negative = cell killing. Entry: CCN(CC)CCc1nc(-c2ccccc2)no1
5.97

Requested read-out: activity, negative = cell killing. Entry: CCCNC(C)C(=O)Nc1c(C)csc1C(=O)OC (centres undefined)
-13.6

Requested read-out: activity, negative = cell killing. Entry: C/C=C/C(=O)N(CC)c1ccccc1C
-17.6

Requested read-out: activity, negative = cell killing. Entry: CN/C(=C\[N+](=O)[O-])NCCSCc1csc(CN(C)C)n1
-13.3

Requested read-out: activity, negative = cell killing. Entry: CCOC(=O)OC(C)OC(=O)[C@@H]1N2C(=O)[C@@H](NC(=O)[C@H](N)c3ccccc3)[C@H]2SC1(C)C (some centres undefined)
-1.55

Requested read-out: activity, negative = cell killing. Entry: CN[C@@H]1[C@H](O)[C@H](NC)[C@H]2O[C@@]3(O)C(=O)C[C@@H](C)O[C@H]3O[C@@H]2[C@H]1O
0.484

Requested read-out: activity, negative = cell killing. Entry: CC(=O)N(CC(O)CN(C(C)=O)c1c(I)c(C(=O)NCC(O)CO)c(I)c(C(=O)NCC(O)CO)c1I)c1c(I)c(C(=O)NCC(O)CO)c(I)c(C(=O)NCC(O)CO)c1I (centres undefined)
15.1

Requested read-out: activity, negative = cell killing. Entry: CCCCC1(COC(=O)CCC(=O)O)C(=O)N(c2ccccc2)N(c2ccccc2)C1=O
-10.8

Requested read-out: activity, negative = cell killing. Entry: CO[C@@]1(NC(=O)C(C(=O)O)c2ccc(O)cc2)C(=O)N2C(C(=O)O)=C(CSc3nnnn3C)CO[C@@H]21 (some centres undefined)
-3.96
